Biological target: sNEP (engineered soluble form of NEP) (Oryctolagus cuniculus, UniProt P08049)
Construct: Fusion of a cleavable signal peptide to the ectodomain of neutral endopeptidase; cleavable signal peptide of proopiomelanocortin (replaces cytosolic and transmembrane domains) (N, cleaved yes); made in house; host or cells: LLC-PK1 cells transfected with pRcCMV-sNEP; concentrated culture medium
Sequence (P08049 52-750 limits assumed, stated change not applied): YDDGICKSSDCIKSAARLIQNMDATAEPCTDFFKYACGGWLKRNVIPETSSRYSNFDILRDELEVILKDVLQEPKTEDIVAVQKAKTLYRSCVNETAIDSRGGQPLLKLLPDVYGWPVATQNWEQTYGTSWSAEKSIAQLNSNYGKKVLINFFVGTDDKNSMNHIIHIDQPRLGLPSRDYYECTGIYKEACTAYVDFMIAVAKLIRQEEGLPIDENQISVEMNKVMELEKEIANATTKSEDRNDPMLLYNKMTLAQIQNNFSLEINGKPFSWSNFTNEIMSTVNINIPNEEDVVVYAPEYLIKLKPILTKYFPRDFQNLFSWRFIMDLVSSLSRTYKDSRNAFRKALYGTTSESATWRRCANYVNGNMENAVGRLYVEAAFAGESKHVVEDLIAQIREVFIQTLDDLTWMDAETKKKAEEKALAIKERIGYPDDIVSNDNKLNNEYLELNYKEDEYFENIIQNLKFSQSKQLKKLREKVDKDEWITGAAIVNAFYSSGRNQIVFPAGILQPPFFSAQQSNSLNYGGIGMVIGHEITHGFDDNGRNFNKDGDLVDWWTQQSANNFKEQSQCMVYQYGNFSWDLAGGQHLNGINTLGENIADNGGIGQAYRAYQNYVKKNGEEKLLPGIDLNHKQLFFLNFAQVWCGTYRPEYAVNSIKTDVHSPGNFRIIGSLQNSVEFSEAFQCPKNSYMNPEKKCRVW
Assay: sNEP enzymatic activity assay with (Tyrosyl-[3,5-3H])(D-Ala2)-Leu5-enkephalin as substrate
Assay type: biochemical
Conditions: inhibition of sNEP/NEP activity
Attribute measured: IC50 (nM)
# output: bare number, implied unit nM

input: Supply reported IC50 belonging to this compound: CC(C)C[C@H](NP(=O)(O)O[C@@H]1O[C@@H](C)[C@H](O)[C@@H](O)[C@H]1O)C(=O)N[C@@H](Cc1c[nH]c2ccccc12)C(=O)O
output: 0.5
